# measuredOn: Metabotropic glutamate receptor 2 (Rattus norvegicus)
# Sequence (P31421 whole entry): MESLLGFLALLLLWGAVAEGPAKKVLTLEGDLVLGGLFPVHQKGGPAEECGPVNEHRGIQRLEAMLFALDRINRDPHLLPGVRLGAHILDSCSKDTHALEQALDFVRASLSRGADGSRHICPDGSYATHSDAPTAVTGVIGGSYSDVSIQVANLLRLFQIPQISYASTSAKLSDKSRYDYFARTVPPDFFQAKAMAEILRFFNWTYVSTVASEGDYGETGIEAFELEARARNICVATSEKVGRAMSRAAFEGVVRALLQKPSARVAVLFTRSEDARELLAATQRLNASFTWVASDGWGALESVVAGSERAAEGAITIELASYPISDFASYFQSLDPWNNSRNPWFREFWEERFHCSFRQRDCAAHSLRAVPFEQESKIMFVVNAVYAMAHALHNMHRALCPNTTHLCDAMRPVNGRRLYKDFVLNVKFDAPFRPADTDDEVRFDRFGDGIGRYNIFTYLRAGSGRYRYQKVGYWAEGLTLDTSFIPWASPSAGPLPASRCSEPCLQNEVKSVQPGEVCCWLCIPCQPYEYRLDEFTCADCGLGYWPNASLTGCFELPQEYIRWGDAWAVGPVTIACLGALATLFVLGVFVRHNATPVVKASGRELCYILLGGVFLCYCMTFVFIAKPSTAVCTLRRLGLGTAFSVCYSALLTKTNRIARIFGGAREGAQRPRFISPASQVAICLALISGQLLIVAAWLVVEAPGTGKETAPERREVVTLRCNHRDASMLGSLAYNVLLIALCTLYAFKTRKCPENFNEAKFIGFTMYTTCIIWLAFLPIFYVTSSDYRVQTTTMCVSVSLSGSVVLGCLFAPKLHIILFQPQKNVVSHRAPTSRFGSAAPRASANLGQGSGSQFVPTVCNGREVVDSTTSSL
# assayProtocol: Displacement of [3H]LY354740 from rat recombinant mGluR2 expressed in CHO cells
# Assay type: cell-based
pIC50: −log10 of the molar value.

| structureAsSmiles | pIC50 |
| --- | --- |
| O=C1CC(c2cccc(-n3ccnn3)c2)=Nc2cc(O)c(C#Cc3ccc(F)cc3)cc2N1 | 7.70 |
| O=C1CC(c2cccc(-n3ccnc3)c2)=Nc2ccc(C#Cc3ccccc3F)cc2N1 | 7.70 |
| O=C1CC(c2cccc(-n3ccnn3)c2)=Nc2ccc(C#Cc3ccc(F)cc3)cc2N1 | 8.22 |
| O=C1CC(c2cccc(-n3cnnn3)c2)=Nc2ccc(C#Cc3ccc(F)cc3)cc2N1 | 7.14 |
| O=C1CC(c2cccc(-n3ccnc3)c2)=Nc2ccc(C#Cc3ccccc3)cc2N1 | 7.89 |
| O=C1CC(c2cccc(-n3ccnc3)c2)=Nc2cc(OCCO)c(C#Cc3ccccc3)cc2N1 | 7.19 |
| Cn1ccnc1-c1cccc(C2=Nc3ccc(C#Cc4ccccc4)cc3NC(=O)C2)c1 | 6.14 |
| Cc1cn(-c2cccc(C3=Nc4ccc(C#Cc5ccc(F)cc5)cc4NC(=O)C3)c2)cn1 | 7.01 |
| COCCOc1cc2c(cc1C#Cc1ccccc1)NC(=O)CC(c1cccc(-n3ccnc3)c1)=N2 | 7.64 |
